# target_of_assay: LILRA2 (human (not printed on the sheet), UniProt Q8N149)
# Sequence (Q8N149 24-449 limits assumed): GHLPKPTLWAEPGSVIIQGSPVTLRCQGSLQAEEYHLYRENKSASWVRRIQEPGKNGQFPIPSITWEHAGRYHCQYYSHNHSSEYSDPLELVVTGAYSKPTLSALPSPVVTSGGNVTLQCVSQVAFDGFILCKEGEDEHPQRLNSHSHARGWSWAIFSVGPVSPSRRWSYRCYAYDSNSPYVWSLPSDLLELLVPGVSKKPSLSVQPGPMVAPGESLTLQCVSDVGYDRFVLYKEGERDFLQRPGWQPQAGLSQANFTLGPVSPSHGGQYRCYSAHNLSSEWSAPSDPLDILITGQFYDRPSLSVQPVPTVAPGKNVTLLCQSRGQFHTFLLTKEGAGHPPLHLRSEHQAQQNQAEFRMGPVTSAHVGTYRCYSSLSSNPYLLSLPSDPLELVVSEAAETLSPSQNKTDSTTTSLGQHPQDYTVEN
# assay_details: LILR reporter cells on coated antibody, GFP positive (%)
recorded_metric: binding result

1. h193 antibody No. 36 (h193-H7 / h193-K2) (antibody, V domains shown) VH: EVQLVESGGGLVQPGGSLRLSCAASGFSLSSSYWISWVRQAPGKGLEWIGSIDSGSVGITYYATWVKGRFTISRDNSKNTLYLQMNSLRAEDTAVYYCARHGDNWALDLWGQGTLVTVSS VL: DLVMTQSPSTLSASVGDRVTITCQASQSINSWLAWYQQKPGKPPKLLIYKASTLASGVSSRFSGSGSGTEFTLTISSLQPDDVATYYCQHGYIRGDLDNVFGGGTKVEIK: no binding
2. h193 antibody No. 31 (h193-H6 / h193-K1) (antibody, V domains shown) VH: EVQLVESGGGLVQPGGSLRLSCAASGFSLSSSYWISWVRQAPGKGLEWIGSIDSGSVGITYYATSAKGRFTISRDNSKNTLYLQMNSLRAEDTAVYYCARHGDNWALDLWGQGTLVTVSS VL: DIQMTQSPSTLSASVGDRVTITCQASQSINSWLAWYQQKPGKAPKLLIYKASTLASGVPSRFSGSGSGTEFTLTISSLQPDDFATYYCQHGYIRGDLDNVFGGGTKVEIK: no binding
